tested on: NCI-H322M; assay: Cytotoxicity against human NCI-H322M cells after 48 hrs by sulforhodamine B assay; assay type: functional
# label = bin(measured GI50), where bins are LOW: < 300 nM; MEDIUM: ≥ 300 nM and < 500 nM; HIGH: ≥ 500 nM

In [3]: df
Out[3]:
                                smiles_input  assigned_class
 0  CCOc1cccc(/C=N/NC(=O)c2ccc(Nc3ccnc(C(F)(F)F)c3)cc2)c1O            HIGH
 1  O=C(N/N=C/c1ccc(O)cc1O)c1ccc(Nc2ccnc(C(F)(F)F)c2)cc1             LOW
 2  O=C(N/N=C/c1ccccc1O)c1ccccc1Nc1ccnc(C(F)(F)F)c1          MEDIUM
 3  CCN(CC)c1ccc(/C=N/NC(=O)Cc2ccc(Nc3ccnc(C(F)(F)F)c3)cc2)c(O)c1          MEDIUM
 4  CCOc1cccc(/C=N/NC(=O)c2cccc(Nc3ccnc(C(F)(F)F)c3)c2)c1O            HIGH
 5  CCN(CC)c1ccc(/C=N/NC(=O)c2ccc(Nc3ccnc(C(F)(F)F)c3)cc2)c(O)c1          MEDIUM
 6  O=C(Cc1ccc(Nc2ccnc(C(F)(F)F)c2)cc1)N/N=C/c1ccccc1O            HIGH
 7  CCOc1cccc(/C=N/NC(=O)c2ccccc2Nc2ccnc(C(F)(F)F)c2)c1O          MEDIUM
 8  CCOc1cccc(/C=N/NC(=O)Cc2ccc(Nc3ccnc(C(F)(F)F)c3)cc2)c1O            HIGH
 9  CCN(CC)c1ccc(/C=N/NC(=O)c2ccccc2Nc2ccnc(C(F)(F)F)c2)c(O)c1             LOW
10  O=C(N/N=C/c1ccc(O)cc1O)c1cccc(Nc2ccnc(C(F)(F)F)c2)c1          MEDIUM
11  CCN(CC)c1ccc(/C=N/NC(=O)c2cccc(Nc3ccnc(C(F)(F)F)c3)c2)c(O)c1             LOW
12  O=C(N/N=C/c1cc(Cl)ccc1O)c1ccccc1Nc1ccnc(C(F)(F)F)c1          MEDIUM
13  COc1cccc(/C=N/NC(=O)c2ccccc2Nc2ccnc(C(F)(F)F)c2)c1O             LOW
